assay: Plasma pharmacokinetics of AMG 232 at steady state (LC-MS/MS, noncompartmental); format: in vivo, human; conditions: human, plasma, oral, 240 mg, Cycle 2 Day 7, co-administered with T, Arm 2, 240 mg; geometric mean, n = 2
readoutLabel: Cmax (ng/mL)

1. CC(C)[C@@H](CS(=O)(=O)C(C)C)N1C(=O)[C@@](C)(CC(=O)O)C[C@H](c2cccc(Cl)c2)[C@H]1c1ccc(Cl)cc1 : 953

###

assay: Plasma pharmacokinetics of trametinib and dabrafenib at steady state (LC-MS/MS, noncompartmental); type: in vivo, human; details: human, plasma, oral, trametinib 2 mg QD, Cycle 1 Day 21 without AMG 232, Arm 1 cohort 1 (AMG 232 120 mg); geometric mean (CV%)
readoutLabel: Cmax (ng/mL)

1) CC(=O)Nc1cccc(-n2c(=O)n(C3CC3)c(=O)c3c(Nc4ccc(I)cc4F)n(C)c(=O)c(C)c32)c1 : 20.1

###

assay: Plasma pharmacokinetics of trametinib and dabrafenib at steady state (LC-MS/MS, noncompartmental); assay type: in vivo, human; conditions: human, plasma, oral, trametinib 2 mg QD, Cycle 2 Day 7 with AMG 232, Arm 1 cohort 1 (AMG 232 120 mg); geometric mean (CV%); read-out: AUC24hr
readoutLabel: AUC(0-t) (ng·h/mL)

1. CC(=O)Nc1cccc(-n2c(=O)n(C3CC3)c(=O)c3c(Nc4ccc(I)cc4F)n(C)c(=O)c(C)c32)c1 : 338

###

test: Plasma pharmacokinetics of AMG 232 at steady state (LC-MS/MS, noncompartmental); format: in vivo, human; conditions: human, plasma, oral, 240 mg, Cycle 1 Day 7, AMG 232 monotherapy, Arm 2, 240 mg; geometric mean (CV%)
readoutLabel: Cmax (ng/mL)

1) CC(C)[C@@H](CS(=O)(=O)C(C)C)N1C(=O)[C@@](C)(CC(=O)O)C[C@H](c2cccc(Cl)c2)[C@H]1c1ccc(Cl)cc1 [AMG 232] : 3300

###

assay: Plasma pharmacokinetics of trametinib and dabrafenib at steady state (LC-MS/MS, noncompartmental); format: in vivo, human; details: human, plasma, oral, 2 mg, trametinib 2 mg QD, Cycle 1 Day 21 without AMG 232, Arm 2 cohort 2 (AMG 232 180 mg); geometric mean (CV%)
readoutLabel: Cmax (ng/mL)

1) CC(=O)Nc1cccc(-n2c(=O)n(C3CC3)c(=O)c3c(Nc4ccc(I)cc4F)n(C)c(=O)c(C)c32)c1 : 25.3

###

test: Plasma pharmacokinetics of trametinib and dabrafenib at steady state (LC-MS/MS, noncompartmental); format: in vivo, human; details: human, plasma, oral, 150 mg BID, dabrafenib 150 mg BID, Cycle 1 Day 21, T + D without AMG 232, Arm 1 cohort 2 (AMG 232 180 mg); geometric mean (CV%)
readoutLabel: Cmax (ng/mL)

1. CC(C)(C)c1nc(-c2cccc(NS(=O)(=O)c3c(F)cccc3F)c2F)c(-c2ccnc(N)n2)s1 [dabrafenib] : 3310

###

assay: Plasma pharmacokinetics of AMG 232 at steady state (LC-MS/MS, noncompartmental); assay type: in vivo, human; details: human, plasma, oral, 180 mg, Cycle 2 Day 7, co-administered with T + D, Arm 1, 180 mg; geometric mean (CV%)
readoutLabel: Cmax

1. CC(C)[C@@H](CS(=O)(=O)C(C)C)N1C(=O)[C@@](C)(CC(=O)O)C[C@H](c2cccc(Cl)c2)[C@H]1c1ccc(Cl)cc1 : 647 ng/mL

###

experiment: Plasma pharmacokinetics of trametinib and dabrafenib at steady state (LC-MS/MS, noncompartmental); format: in vivo, human; settings: human, plasma, oral, trametinib 2 mg QD, Cycle 1 Day 21 without AMG 232, Arm 1 cohort 1 (AMG 232 120 mg); median (min-max); read-out: tmax
readoutLabel: Tmax (h)

1) CC(=O)Nc1cccc(-n2c(=O)n(C3CC3)c(=O)c3c(Nc4ccc(I)cc4F)n(C)c(=O)c(C)c32)c1 : 2
